- TEST PROTOCOL: Antiproliferative activity against human WM164 cells after 48 hrs by SRB assay
- Type: functional, cell-based
- EXPERIMENTAL SETUP: WM164, 48 h

| COMPOUND | READOUT UNITS | MODIFIER | IC50 |
| --- | --- | --- | --- |
| CCCCCCCCCCCCCCCCCCNC(=O)[C@@H]1CSC(c2ccccc2)N1 (mixture of isomers) | µM | = | 4.4 |
| CN(C)/N=N/c1[nH]cnc1C(N)=O | µM | > | 100 |
| CCCCCCCCCCCCCCCCOC(=O)[C@@H]1CSC(c2ccc(NC(C)=O)cc2)N1 (mixture of isomers) | µM | = | 18.5 |
| CC(=O)Nc1ccc(C2N[C@H](C(=O)NC34CC5CC(CC(C5)C3)C4)CS2)cc1 (mixture of isomers) | µM | = | 128 |
| CCCCCCCCCCCCCCCCCCNC(=O)[C@@H]1CSC(c2cc(OC)c(OC)c(OC)c2)N1 (mixture of isomers) | µM | = | 3 |
| CCCCCCCCC/C=C\CCCCCCCNC(=O)[C@@H]1CSC(c2ccc(OC)c(OC)c2)N1 (mixture of isomers) | µM | = | 1.2 |
| CCCCCCCCCCCCCCCCNC[C@@H]1CSC(c2ccccc2)N1 (mixture of isomers) | µM | = | 4.9 |
| CCCCCCCCCCCCCCCCNC(=O)[C@@H]1CSC(c2cccc(NC(C)=O)c2)N1 (mixture of isomers) | µM | = | 1.1 |
| CCCCCCCCCCCCCCCCNC(=O)[C@H](CSC)NCc1ccc(NC(C)=O)cc1 | µM | = | 145 |
| CCCCCCCCCCCCCCCCNC(=O)[C@@H]1CSC(c2ccccc2NC(C)=O)N1 (mixture of isomers) | µM | = | 3.9 |
| CC(=O)Nc1ccc(C2N[C@H](C(=O)Nc3ccc(-c4ccccc4)cc3)CS2)cc1 (mixture of isomers) | µM | = | 4.1 |
| CCCCCCCCCCCCCCCCNC(=O)[C@@H](N)CSC | µM | = | 14.4 |
| CCCCCCCCC/C=C/CCCCCCCNC(=O)[C@@H]1CSC(c2ccc(OC)c(OC)c2)N1 (mixture of isomers) | µM | = | 1.1 |
| CCCCCCCCCCCCCCCCNC(=O)[C@@H]1CSC(c2cccc(OC)c2)N1 (mixture of isomers) | µM | = | 1.2 |
| CCCCCCCCCCCCCCCCNC(=O)[C@@H]1CSC(c2ccc(NC(C)=O)cc2)N1C(C)=O (mixture of isomers) | µM | = | 20.4 |
| CC(=O)Nc1ccc(C2N[C@H](C(=O)Nc3ccc4cc5ccccc5cc4c3)CS2)cc1 (mixture of isomers) | µM | = | 1.4 |
| CCCCCCCCCCCCCCCCNC(=O)[C@@H]1CSC(c2ccc(N(C)C)cc2)N1 (mixture of isomers) | µM | = | 1.5 |
| CCCCCCCCCCCCCCCCNC(=O)[C@@H]1CSC(c2ccc(NS(C)(=O)=O)cc2)N1 (mixture of isomers) | µM | = | 18.6 |

* * *

- System: A-375
- TEST PROTOCOL: Antiproliferative activity against human A375 cells after 48 hrs by SRB assay
- Assay type: functional, cell-based
- EXPERIMENTAL SETUP: A-375, 48 h
I'd appreciate it if you marked entries True when IC50 is lower than 3000 nM and False when it is not.

| COMPOUND | ANSWER LABEL |
| --- | --- |
| CCCCCCCCCCCCCCCCNC(=O)CNCc1ccc(NC(C)=O)cc1 | False |
| CCCCCCCCC/C=C/CCCCCCCNC(=O)[C@@H]1CSC(c2ccccc2)N1 (mixture of isomers) | False |
| CCCCCCCCC/C=C\CCCCCCCNC(=O)[C@@H]1CSC(c2ccc(OC)c(OC)c2)N1 (mixture of isomers) | True |
| CCCCCCCCCCCCCCCCNC(=O)[C@@H](N)CSC | False |
| CCCCCC/C=C\CCCCCCCCNC(=O)[C@@H]1CSC(c2ccc(NC(C)=O)cc2)N1 (mixture of isomers) | True |
| CCCCCCCCC#CCCCCCCCCCNC(=O)[C@@H]1CSC(c2ccc(NC(C)=O)cc2)N1 (mixture of isomers) | True |
| CCCCCCCCC/C=C/CCCCCCCNC(=O)[C@@H]1CSC(c2cc(OC)c(OC)c(OC)c2)N1 (mixture of isomers) | True |
| CN(C)/N=N/c1[nH]cnc1C(N)=O | False |

* * *

Parameter IC50: see the listing below.
- Test system: RH7777
- TEST PROTOCOL: Cytotoxicity against rat RH7777 cells after 96 hrs by SRB assay
- Type: cell-based
- EXPERIMENTAL SETUP: RH7777, 96 h

| MOLECULE | IC50 [µM] |
| --- | --- |
| CCCCCCCCC/C=C\CCCCCCCNC(=O)[C@@H]1CSC(c2cc(OC)c(OC)c(OC)c2)N1 (mixture of isomers) | 8.4 |
| CCCCCCCCCCCCCCCCNC[C@@H]1CSC(c2ccccc2)N1 (mixture of isomers) | 6.2 |
| CCCCCCCCCCCCCCCCCCNC(=O)[C@@H]1CSC(c2ccc(OC)c(OC)c2)N1 (mixture of isomers) | 11.8 |

* * *

- System: RH7777
- TEST PROTOCOL: Cytotoxicity against rat RH7777 cells after 96 hrs by SRB assay
- Type: cell-based
- EXPERIMENTAL SETUP: RH7777, 96 h
# IC50 listing for each entry below
QUANTITY KIND: IC50 (µM)

| MOLECULE | READOUT UNITS | MODIFIER | READOUT VALUE |
| --- | --- | --- | --- |
| CCCCCCCCCCCCCCCCNC(=O)[C@@H]1CSC(c2ccc(OC)cc2)N1 (mixture of isomers) | µM | = | 8.4 |
| CCCCCCCCC/C=C/CCCCCCCNC(=O)[C@@H]1CSC(c2cc(OC)c(OC)c(OC)c2)N1 (mixture of isomers) | µM | = | 6.8 |
| CC(=O)Nc1ccc(C2N[C@H](C(=O)Nc3nc4ccccc4s3)CS2)cc1 (mixture of isomers) | µM | > | 20 |
| CCCCCCCCC/C=C\CCCCCCCNC(=O)[C@@H]1CSC(c2ccccc2)N1 (mixture of isomers) | µM | = | 8.3 |

* * *

- TEST PROTOCOL: Toxicity in mouse assessed as maximum tolerated dose
- Format: organism-based
- EXPERIMENTAL SETUP: in vivo

| MOLECULE | MTD |
| --- | --- |
| CCCCCCCCCCCCCCCCNC(=O)[C@@H]1CSC(c2ccc(NC(C)=O)cc2)N1 (mixture of isomers) | 42 mg/kg |

* * *

- Tested on: A-375
- TEST PROTOCOL: Antiproliferative activity against human A375 cells after 48 hrs by SRB assay
- Type: functional, cell-based
- EXPERIMENTAL SETUP: A-375, 48 h
pIC50: −log10 of the molar value.
Label Criterion met when pIC50 >= 5; otherwise Criterion not met.

| COMPOUND | ANSWER LABEL |
| --- | --- |
| CCCCCCCCCCCCCCCCNC(=O)[C@@H]1CSC(c2ccc(NC(N)=O)cc2)N1 (mixture of isomers) | Criterion met |
| CCCCCCCCC/C=C\CCCCCCCNC(=O)[C@@H]1CSC(c2cc(OC)c(OC)c(OC)c2)N1 (mixture of isomers) | Criterion met |
| CCCCCCCCCCCCCCCCNC[C@@H]1CSC(c2ccc(NC(C)=O)cc2)N1 (mixture of isomers) | Criterion not met |
| CCCCCCCCCCCCCCCCNC(=O)[C@@H]1CSC(c2ccc(NS(C)(=O)=O)cc2)N1 (mixture of isomers) | Criterion not met |
| CCCCCCCCCCCCCCCCCCNC(=O)[C@@H]1CSC(c2ccccc2)N1 (mixture of isomers) | Criterion not met |
| CC(=O)Nc1ccc(C2N[C@H](C(=O)Nc3ccc4cc5ccccc5cc4c3)CS2)cc1 (mixture of isomers) | Criterion met |
| CC(=O)Nc1ccc(C2N[C@H](C(=O)Nc3nc4ccccc4s3)CS2)cc1 (mixture of isomers) | Criterion not met |
| CCCCCCCCCCCCCCCCNC(=O)[C@@H]1CSC(c2ccc(NC(=O)CCl)cc2)N1 (mixture of isomers) | Criterion not met |
| CCCCCCCCCCCCCCCCNC(=O)[C@@H](N)CSCc1ccccc1 | Criterion not met |
| CC(=O)Nc1ccc(C2N[C@H](C(=O)NC34CC5CC(CC(C5)C3)C4)CS2)cc1 (mixture of isomers) | Criterion not met |
| CCCCCCCCCCCCCCCCCCNC(=O)[C@@H]1CSC(c2cc(OC)c(OC)c(OC)c2)N1 (mixture of isomers) | Criterion met |
| CCCCCCCCCCCCCCCCNC(=O)[C@@H]1CSC(c2cccc(NC(C)=O)c2)N1 (mixture of isomers) | Criterion met |
| CCCCCCCCCCCCCCCCNC(=O)[C@H](CSC)NCc1ccc(NC(C)=O)cc1 | Criterion not met |
| CCCCCCCCCCCCCCCCCCN(C)C(=O)[C@@H]1CSC(c2ccc(NC(C)=O)cc2)N1 (mixture of isomers) | Criterion not met |
| CCCCCCCCCCCCCCCCNC(=O)[C@@H]1CSC(c2ccc(N(C)C)cc2)N1 (mixture of isomers) | Criterion met |
